# System tested: recombinant human NK3 receptor (Homo sapiens (Human), UniProt P29371)
# Sequence (P29371 whole entry): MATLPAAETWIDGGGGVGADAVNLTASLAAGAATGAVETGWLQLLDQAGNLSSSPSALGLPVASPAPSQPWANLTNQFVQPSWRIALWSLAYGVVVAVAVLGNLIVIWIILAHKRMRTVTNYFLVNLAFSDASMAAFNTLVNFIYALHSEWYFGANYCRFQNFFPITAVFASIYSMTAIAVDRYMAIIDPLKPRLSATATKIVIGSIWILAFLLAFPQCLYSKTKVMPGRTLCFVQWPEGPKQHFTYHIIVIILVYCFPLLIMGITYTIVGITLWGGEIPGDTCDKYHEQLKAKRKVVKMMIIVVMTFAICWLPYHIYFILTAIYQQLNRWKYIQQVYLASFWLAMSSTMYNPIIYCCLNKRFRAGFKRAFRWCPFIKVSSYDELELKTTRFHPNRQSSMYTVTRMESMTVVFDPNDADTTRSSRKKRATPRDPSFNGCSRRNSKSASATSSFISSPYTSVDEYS
# Measurement description: biochemical
# Format: binding
# Test context: [3H]SR142801, membranes of HEK293 cells transiently expressing recombinant human NK3 receptor; read-out: Data Ki (hNK-3 receptor affinity)

Compound	System tested	Ki [nM]
CCN(C(=O)Oc1ccc(F)cc1)[C@@H]1CN(C(=O)C2CCN(c3ccc(S(C)(=O)=O)cn3)CC2)C[C@H]1c1ccc(Cl)cc1	recombinant human NK3 receptor (Homo sapiens (Human), UniProt P29371)	2
CCN(C(=O)Oc1ccc(F)cc1)[C@@H]1CN(C(=O)C2CCN(C(=O)C3CC(F)(F)C3)CC2)C[C@H]1c1ccc(Cl)cc1	recombinant human NK3 receptor (Homo sapiens (Human), UniProt P29371)	2.4
CCN(C(=O)Oc1ccc(F)cc1)[C@@H]1CN(C(=O)C2CCN(C(=O)C3CC(F)C3)CC2)C[C@H]1c1ccc(Cl)c(F)c1 (stereo partly shown)	recombinant human NK3 receptor (Homo sapiens (Human), UniProt P29371)	2
CCN(C(=O)Oc1ccc(F)cc1)[C@@H]1CN(C(=O)C2CCN(c3ccc(C(F)(F)F)cn3)CC2)C[C@H]1c1ccc(Cl)c(Cl)c1	recombinant human NK3 receptor (Homo sapiens (Human), UniProt P29371)	1.6
CCN(C(=O)Oc1ccc(F)cc1)[C@@H]1CN(C(=O)C2CCN(c3ccc(S(C)(=O)=O)cn3)CC2)C[C@H]1c1ccc(Cl)c(F)c1	recombinant human NK3 receptor (Homo sapiens (Human), UniProt P29371)	0.7
CCN(C(=O)Oc1ccc(F)cc1)[C@@H]1CN(C(=O)C2CCN(c3ccc(C#N)cn3)CC2)C[C@H]1c1ccc(Cl)cc1	recombinant human NK3 receptor (Homo sapiens (Human), UniProt P29371)	2
CCN(C(=O)Oc1ccc(F)cc1)[C@@H]1CN(C(=O)C2CCN(c3ccc(S(C)(=O)=O)cn3)CC2)C[C@H]1c1ccc(F)cc1	recombinant human NK3 receptor (Homo sapiens (Human), UniProt P29371)	8
CCN(C(=O)Oc1ccc(F)cc1)[C@@H]1CN(C(=O)C2CCN(c3ccc(C#N)nc3)CC2)C[C@H]1c1ccc(F)c(F)c1	recombinant human NK3 receptor (Homo sapiens (Human), UniProt P29371)	2
CCN(C(=O)Oc1ccc(F)cc1)[C@@H]1CN(C(=O)C2CCN(c3ccc(C(C)=O)cn3)CC2)C[C@H]1c1ccc(F)c(Cl)c1	recombinant human NK3 receptor (Homo sapiens (Human), UniProt P29371)	1.7
CCN(C(=O)Oc1ccc(F)cc1)[C@@H]1CN(C(=O)C2CCN(c3ccc(Cl)cn3)CC2)C[C@H]1c1ccc(Cl)c(Cl)c1	recombinant human NK3 receptor (Homo sapiens (Human), UniProt P29371)	0.5
CCN(C(=O)Oc1ccc(F)cc1)[C@@H]1CN(C(=O)C2CCN(C(=O)c3ccc(F)cn3)CC2)C[C@H]1c1ccc(Cl)c(F)c1	recombinant human NK3 receptor (Homo sapiens (Human), UniProt P29371)	3
CCN(C(=O)Oc1ccc(F)cc1)[C@@H]1CN(C(=O)C2CCN(c3ccc(Cl)cn3)CC2)C[C@H]1c1ccc(Cl)c(F)c1	recombinant human NK3 receptor (Homo sapiens (Human), UniProt P29371)	0.6
CCN(C(=O)Oc1ccc(F)cc1)[C@H]1CN(C(=O)C2CCN(c3ncc(C#N)cn3)CC2)C[C@@H]1c1ccc(Cl)cc1	recombinant human NK3 receptor (Homo sapiens (Human), UniProt P29371)	89
CCN(C(=O)Oc1ccc(F)cc1)[C@@H]1CN(C(=O)C2CCN(c3ccc(C#N)cn3)CC2)C[C@H]1c1ccc(F)c(F)c1	recombinant human NK3 receptor (Homo sapiens (Human), UniProt P29371)	2
CCN(C(=O)Oc1ccc(F)cc1)[C@@H]1CN(C(=O)C2CCN(c3ccc(C#N)cn3)CC2)C[C@H]1c1ccc(F)cc1	recombinant human NK3 receptor (Homo sapiens (Human), UniProt P29371)	4
CCN(C(=O)Oc1ccc(F)cc1)[C@@H]1CN(C(=O)C2CCN(c3ncc(C#N)cn3)CC2)C[C@H]1c1ccc(Cl)cc1	recombinant human NK3 receptor (Homo sapiens (Human), UniProt P29371)	8
CCN(C(=O)Oc1ccc(F)cc1)[C@@H]1CN(C(=O)C2CCN(C(=O)C3(C(F)(F)F)CCC3)CC2)C[C@H]1c1ccc(Cl)c(F)c1	recombinant human NK3 receptor (Homo sapiens (Human), UniProt P29371)	2
CC(C)N(C(=O)Oc1ccc(F)cc1)[C@@H]1CN(C(=O)C2CCN(C(=O)C3(C)CC3)CC2)C[C@H]1c1ccc(Cl)c(Cl)c1 (racemic)	recombinant human NK3 receptor (Homo sapiens (Human), UniProt P29371)	46
CC(C)CN(C(=O)Oc1ccc(F)cc1)[C@@H]1CN(C(=O)C2CCN(C(=O)C3(C)CC3)CC2)C[C@H]1c1ccc(Cl)c(Cl)c1 (racemic)	recombinant human NK3 receptor (Homo sapiens (Human), UniProt P29371)	276
CC(C)N(C(=O)Oc1ccc(F)cc1)[C@@H]1CN(C(=O)C2CCN(c3ccc(C(F)(F)F)cn3)CC2)C[C@H]1c1ccc(Cl)cc1	recombinant human NK3 receptor (Homo sapiens (Human), UniProt P29371)	112
CCN(C(=O)Oc1ccc(F)cc1)[C@@H]1CN(C(=O)C2CCC(=O)N(C(C)C)C2)C[C@H]1c1ccc(Cl)c(F)c1 (stereo partly shown)	recombinant human NK3 receptor (Homo sapiens (Human), UniProt P29371)	31.2
CCN(C(=O)Oc1ccc(F)cc1)[C@@H]1CN(C(=O)C2CCN(c3ccc(F)cn3)CC2)C[C@H]1c1ccc(Cl)c(F)c1	recombinant human NK3 receptor (Homo sapiens (Human), UniProt P29371)	1
CCN(C(=O)Oc1ccc(F)cc1)[C@@H]1CN(C(=O)C2CCN(c3ccc(Cl)cn3)CC2)C[C@H]1c1ccc(F)c(F)c1	recombinant human NK3 receptor (Homo sapiens (Human), UniProt P29371)	5
CCN(C(=O)Oc1ccc(F)cc1)[C@@H]1CN(C(=O)C2CCN(C(=O)C3(C)COC3)CC2)C[C@H]1c1ccc(Cl)c(F)c1	recombinant human NK3 receptor (Homo sapiens (Human), UniProt P29371)	3
CCN(C(=O)Oc1ccc(F)cc1)[C@@H]1CN(C(=O)C2CCN(c3ccc(C(C)=O)cn3)CC2)C[C@H]1c1ccc(F)c(F)c1	recombinant human NK3 receptor (Homo sapiens (Human), UniProt P29371)	4
